biological target: T1, recombinant mouse αvβ1 integrin extracellular domains (mouse, UniProt P43406 1-988; P09055 1-728, Biotinylated on the Avitag (tag not in the letters); interchain disulfide between the coiled-coils (not in the letters).); experiment: AlphaLISA blocking of mouse fibronectin binding
T1 construct: Soluble heterodimer co-expressed in Expi293 cells; also called mαvβ1
T1 sequence (P43406 31-988 limits assumed, form in doubt, chain 1 of 2): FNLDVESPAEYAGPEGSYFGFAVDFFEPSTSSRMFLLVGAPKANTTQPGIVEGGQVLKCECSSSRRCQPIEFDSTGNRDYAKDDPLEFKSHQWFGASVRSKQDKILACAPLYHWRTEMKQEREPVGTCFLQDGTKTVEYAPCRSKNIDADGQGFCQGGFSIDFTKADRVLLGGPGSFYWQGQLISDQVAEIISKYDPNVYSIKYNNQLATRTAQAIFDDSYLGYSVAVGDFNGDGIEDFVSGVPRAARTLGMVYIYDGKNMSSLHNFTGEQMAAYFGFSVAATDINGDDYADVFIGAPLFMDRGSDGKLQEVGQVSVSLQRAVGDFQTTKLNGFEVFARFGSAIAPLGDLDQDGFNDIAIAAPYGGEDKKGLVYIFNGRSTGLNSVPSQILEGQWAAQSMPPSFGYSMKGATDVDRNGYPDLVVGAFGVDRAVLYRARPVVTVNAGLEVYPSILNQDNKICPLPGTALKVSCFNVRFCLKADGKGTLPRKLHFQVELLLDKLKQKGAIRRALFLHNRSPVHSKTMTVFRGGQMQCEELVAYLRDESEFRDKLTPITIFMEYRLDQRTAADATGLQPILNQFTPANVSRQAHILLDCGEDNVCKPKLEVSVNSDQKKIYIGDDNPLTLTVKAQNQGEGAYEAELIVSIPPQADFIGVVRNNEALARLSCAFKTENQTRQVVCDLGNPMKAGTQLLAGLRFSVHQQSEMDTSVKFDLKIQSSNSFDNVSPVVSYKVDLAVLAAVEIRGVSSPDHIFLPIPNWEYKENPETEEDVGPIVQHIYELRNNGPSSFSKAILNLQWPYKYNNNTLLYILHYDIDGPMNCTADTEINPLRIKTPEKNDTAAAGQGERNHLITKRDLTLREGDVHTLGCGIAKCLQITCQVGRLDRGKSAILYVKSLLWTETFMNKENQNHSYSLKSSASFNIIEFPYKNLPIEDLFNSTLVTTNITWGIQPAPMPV
T1 sequence (P09055 21-728 limits assumed, form in doubt, chain 2 of 2): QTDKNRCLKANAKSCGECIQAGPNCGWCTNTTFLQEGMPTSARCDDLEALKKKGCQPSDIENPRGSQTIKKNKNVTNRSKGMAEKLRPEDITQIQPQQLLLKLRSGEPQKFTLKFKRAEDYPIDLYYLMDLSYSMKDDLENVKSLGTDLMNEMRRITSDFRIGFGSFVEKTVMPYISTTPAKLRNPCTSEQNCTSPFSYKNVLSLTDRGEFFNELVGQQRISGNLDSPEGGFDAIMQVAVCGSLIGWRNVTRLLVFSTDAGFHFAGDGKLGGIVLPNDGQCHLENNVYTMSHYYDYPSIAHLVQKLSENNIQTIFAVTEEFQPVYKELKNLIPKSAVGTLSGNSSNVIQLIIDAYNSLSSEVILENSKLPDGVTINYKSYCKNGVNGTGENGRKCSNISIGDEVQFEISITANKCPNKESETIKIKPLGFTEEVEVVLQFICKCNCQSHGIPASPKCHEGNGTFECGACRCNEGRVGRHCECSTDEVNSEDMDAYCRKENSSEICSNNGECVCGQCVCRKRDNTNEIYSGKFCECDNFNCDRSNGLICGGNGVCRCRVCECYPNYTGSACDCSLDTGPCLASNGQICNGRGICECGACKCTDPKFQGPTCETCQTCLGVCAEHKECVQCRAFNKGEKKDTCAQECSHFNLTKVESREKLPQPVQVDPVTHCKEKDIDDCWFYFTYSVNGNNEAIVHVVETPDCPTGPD
resultType: IC50 (nM)

binder	resultType	resultUnits	experimentalResult
Ab-32 (antibody, V domains shown) VH: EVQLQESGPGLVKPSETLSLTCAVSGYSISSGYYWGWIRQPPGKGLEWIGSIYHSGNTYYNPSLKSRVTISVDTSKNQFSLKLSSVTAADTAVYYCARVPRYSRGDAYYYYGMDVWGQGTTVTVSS VL: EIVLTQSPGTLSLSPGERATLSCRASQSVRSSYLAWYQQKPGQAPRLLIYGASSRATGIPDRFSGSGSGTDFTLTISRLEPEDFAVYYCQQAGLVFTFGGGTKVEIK	IC50	nM	6.7
